Below, each entry is listed alongside its reported binding signal.
# system_name: THOC4 (ALYREF) (UniProt Q86V81 Q86V81:2-257)
# measurement_notes: SPR
value_kind: binding signal (normalized Rmax)

- binder: "CCAGGGAGCCGGACUUGGCG (ssRNA, 2'-OMe all, full PS) [DKLS712428 (SEQ 64)]"
  value_kind: "binding signal"
  recorded_result: 0.51
- binder: "CCUGUGUGCCCCUCUUCCCU (ssRNA, 2'-OMe all, full PS) [DKLS374580 (SEQ 58)]"
  value_kind: "binding signal"
  recorded_result: 0.12
- binder: "CCACUGAGCCCGACUUCCCU (ssRNA, 2'-OMe all, full PS) [DKLS459520 (SEQ 60)]"
  value_kind: "binding signal"
  recorded_result: 0.03
- binder: "CAGAGGCAGCAGUACGA (ssRNA, 2'-OMe all, full PS) [LSA_ATG 3' truncation 17 nt]"
  value_kind: "binding signal"
  recorded_result: 1.46
